Source of measurements: ChEMBL document CHEMBL4177766

# tested-target: Class 1 phosphodiesterase PDEB1 (Trypanosoma brucei, UniProt Q8WQX9)
# Sequence (Q8WQX9 whole entry): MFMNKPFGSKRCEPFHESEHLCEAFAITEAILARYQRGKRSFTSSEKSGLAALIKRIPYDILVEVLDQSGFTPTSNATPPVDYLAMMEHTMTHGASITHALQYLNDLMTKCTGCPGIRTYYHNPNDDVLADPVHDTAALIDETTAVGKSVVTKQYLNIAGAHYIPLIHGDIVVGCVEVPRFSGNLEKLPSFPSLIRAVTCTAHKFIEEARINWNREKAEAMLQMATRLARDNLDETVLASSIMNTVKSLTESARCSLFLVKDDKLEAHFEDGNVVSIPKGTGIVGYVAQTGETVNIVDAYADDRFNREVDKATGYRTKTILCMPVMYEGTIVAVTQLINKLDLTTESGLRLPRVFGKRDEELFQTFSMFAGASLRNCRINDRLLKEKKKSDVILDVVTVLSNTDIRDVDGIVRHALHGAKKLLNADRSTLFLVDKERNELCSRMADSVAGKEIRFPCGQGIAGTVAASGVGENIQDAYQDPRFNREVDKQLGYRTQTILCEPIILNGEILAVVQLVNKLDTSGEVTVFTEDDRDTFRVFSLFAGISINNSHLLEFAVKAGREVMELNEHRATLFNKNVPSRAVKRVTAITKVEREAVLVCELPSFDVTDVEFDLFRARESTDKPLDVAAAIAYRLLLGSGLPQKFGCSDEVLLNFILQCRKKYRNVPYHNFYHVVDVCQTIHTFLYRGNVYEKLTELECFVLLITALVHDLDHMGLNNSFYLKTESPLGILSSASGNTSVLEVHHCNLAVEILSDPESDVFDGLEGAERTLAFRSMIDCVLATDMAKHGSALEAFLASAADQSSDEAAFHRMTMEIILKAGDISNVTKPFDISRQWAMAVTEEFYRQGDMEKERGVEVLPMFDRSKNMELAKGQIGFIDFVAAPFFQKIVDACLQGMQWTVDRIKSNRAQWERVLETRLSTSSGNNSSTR
readout-type: Ki (nM)

>>> endpoint_result("COc1ccc(C2=NN(C3CCCCCC3)C(=O)[C@@H]3CC=CC[C@H]23)cc1-c1ccc(C(=O)NCC(=O)N(C)C)cc1 (relative stereo)")
794
>>> endpoint_result("COCCNC(=O)CNC(=O)c1ccc(-c2cc(C3=NN(C4CCCCCC4)C(=O)[C@@H]4CC=CC[C@H]34)ccc2OC)cc1 (relative stereo)")
501
>>> endpoint_result("COc1ccc(C2=NN(C3CCCCCC3)C(=O)[C@@H]3CC=CC[C@H]23)cc1-c1ccc(C#N)cc1 (relative stereo)")
501

---

# tested-target: 3',5'-cyclic-AMP phosphodiesterase 4B (Homo sapiens, UniProt Q07343)
# Sequence (Q07343 whole entry): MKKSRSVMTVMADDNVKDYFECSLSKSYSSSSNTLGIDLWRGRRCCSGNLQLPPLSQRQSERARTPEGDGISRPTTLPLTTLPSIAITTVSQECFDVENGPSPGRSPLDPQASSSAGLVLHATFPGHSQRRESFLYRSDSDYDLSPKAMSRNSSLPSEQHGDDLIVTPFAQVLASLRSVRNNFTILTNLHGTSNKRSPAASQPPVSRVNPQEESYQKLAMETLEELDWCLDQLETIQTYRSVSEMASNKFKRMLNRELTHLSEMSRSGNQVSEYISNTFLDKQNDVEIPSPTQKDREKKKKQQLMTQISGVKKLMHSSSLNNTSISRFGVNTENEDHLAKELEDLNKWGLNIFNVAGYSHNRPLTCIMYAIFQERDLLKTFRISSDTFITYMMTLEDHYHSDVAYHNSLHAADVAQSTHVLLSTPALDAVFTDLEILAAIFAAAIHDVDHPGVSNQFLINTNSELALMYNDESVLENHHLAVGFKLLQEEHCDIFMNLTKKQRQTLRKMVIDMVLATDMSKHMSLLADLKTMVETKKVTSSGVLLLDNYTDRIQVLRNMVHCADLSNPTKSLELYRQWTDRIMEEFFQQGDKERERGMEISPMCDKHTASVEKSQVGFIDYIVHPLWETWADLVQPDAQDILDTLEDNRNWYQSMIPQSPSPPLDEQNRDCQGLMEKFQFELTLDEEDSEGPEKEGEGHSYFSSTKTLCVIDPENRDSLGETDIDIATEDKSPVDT
# protocol-notes: Inhibition of full length recombinant human PDE4B1 expressed in Sf21 insect cells using cAMP as substrate by scintillation proximity assay
readout-type: Ki (nM)

>>> endpoint_result("COc1ccc(C2=NN(C(C)C)C(=O)[C@@H]3CC=CC[C@H]23)cc1-c1ccc(C(=O)NCC(N)=O)cc1 (relative stereo)")
2000
>>> endpoint_result("COc1ccc(C2=NN(C3CCCCCC3)C(=O)[C@H]3CC=CC[C@@H]23)cc1-c1ccc(C(=O)NCC(N)=O)cc1")
50100
>>> endpoint_result("COc1ccc(C2=NN(C3CCCCCC3)C(=O)[C@@H]3CC=CC[C@H]23)cc1-c1ccc(C(=O)NCC(=O)NCCO)cc1 (relative stereo)")
3160
>>> endpoint_result("COCCNC(=O)c1ccc(-c2cc(C3=NN(C4CCCCCC4)C(=O)[C@@H]4CC=CC[C@H]34)ccc2OC)cc1 (relative stereo)")
2000
>>> endpoint_result("CNC(=O)CNC(=O)c1ccc(-c2cc(C3=NN(C4CCCCCC4)C(=O)[C@@H]4CC=CC[C@H]34)ccc2OC)cc1 (relative stereo)")
2510
>>> endpoint_result("COc1ccc(C2=NN(C3CCCCCC3)C(=O)[C@@H]3CC=CC[C@H]23)cc1-c1ccc(C(=O)NCC(=O)N(C)C)cc1 (relative stereo)")
3160
